procedure summary: Co-solvent addition: AOL solubility
Format: physicochemical
reported conditions: aqueous SBE-β-CD solution, aqueous with cosolvent or surfactant or cyclodextrin, thermodynamic from solid, SBE-β-CD 30% (w/w), PVP 12PF 0.5% (w/w)
Procedure: SBE-β-CD compatible excipients, namely polyethylene glycol and polysorbate (Tween), were evaluated for their AOL aqueous solubilizing power. Screening was carried out in same conditions as that of solubilization screening by cyclodextrins (see Example 3). Briefly, 20% (w/w) solutions of each excipient were prepared. An excess of AOL was added and the solutions were analyzed by HPLC after 4 hours of stirring. […]
reported property: solubility at 4 h

Form: compound = COc1ccc(-c2cc(=S)ss2)cc1 [AOL] ; solubility at 4 h = 668 µg/mL
